target: T1, human MSLN-R2-his protein (human, UniProt Q13421 391-486)
T1 construct: Region 2 of human mesothelin, made in HEK293E cells, His-tagged; also called human MSLN-R2 protein; hMSLN-R2-his; not shown: His tag
T1 sequence (Q13421 other isoform, or with tags, fused parts or gaps): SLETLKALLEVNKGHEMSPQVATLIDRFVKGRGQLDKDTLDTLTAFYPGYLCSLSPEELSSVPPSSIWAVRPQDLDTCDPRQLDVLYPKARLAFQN
experiment description: ELISA on coated MSLN-R2; antibody 1 nM
parameter measured: OD450 (OD450)
Just the number please, in OD450, no unit attached.

binder	parameter measured	result value
S009-F8-18.9 (antibody, human IgG1, kappa, V domains shown) VH: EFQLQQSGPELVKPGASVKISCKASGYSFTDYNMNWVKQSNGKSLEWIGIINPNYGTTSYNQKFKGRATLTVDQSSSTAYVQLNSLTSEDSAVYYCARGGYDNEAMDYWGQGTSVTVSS VL: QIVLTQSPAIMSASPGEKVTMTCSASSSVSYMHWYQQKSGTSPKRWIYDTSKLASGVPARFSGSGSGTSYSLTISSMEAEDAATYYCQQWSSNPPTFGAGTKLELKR	OD450	0.05
S009-F8-24.14 (antibody, human IgG1, kappa, V domains shown) VH: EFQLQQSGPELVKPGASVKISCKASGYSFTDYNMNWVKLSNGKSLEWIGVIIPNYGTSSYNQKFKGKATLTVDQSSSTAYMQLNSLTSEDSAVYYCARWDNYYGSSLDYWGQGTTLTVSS VL: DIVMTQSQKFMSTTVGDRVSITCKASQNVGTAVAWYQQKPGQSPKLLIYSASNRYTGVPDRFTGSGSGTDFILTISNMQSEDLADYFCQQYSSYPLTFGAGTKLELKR	OD450	0.04

Lab note: S009-F8-12.13 (antibody, human IgG1, kappa, V domains shown) VH: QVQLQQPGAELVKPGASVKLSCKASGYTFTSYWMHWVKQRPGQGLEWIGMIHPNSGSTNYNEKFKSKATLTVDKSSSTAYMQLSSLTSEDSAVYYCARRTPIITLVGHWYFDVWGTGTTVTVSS VL: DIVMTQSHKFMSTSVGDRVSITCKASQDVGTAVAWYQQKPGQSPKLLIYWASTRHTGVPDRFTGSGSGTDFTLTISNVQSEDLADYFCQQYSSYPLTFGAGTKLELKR gave OD450 of 0.05
